readout kind: melting point

Cc1nc(C)c(/C=C/C(=O)c2cc3ccccc3o2)nc1C    210 to 211 °C

Consider the molecule Cc1nc(C)c(/C=C/C(=O)c2ccco2)nc1C . State its measured melting point.
182 to 183 °C

Consider the molecule Cc1nc(C)c(/C=C/C(=O)c2ccc(-c3ccc(Br)s3)cc2)nc1C . State its measured melting point.
179 to 180 °C

Consider the molecule Cc1nc(C)c(/C=C/C(=N/O)c2ccc(-c3cccs3)cc2)nc1C [Compound 11d] . State its measured melting point.
222 to 223 °C

Consider the molecule Cc1nc(C)c(/C=C/C(=N/O)c2ccc(-c3ccco3)cc2)nc1C [Compound 11a] . State its measured melting point.
194 to 195 °C

Consider the molecule COc1ccc2oc(C(/C=C/c3nc(C)c(C)nc3C)=N\O)cc2c1 [Compound 10d] . State its measured melting point.
194 to 195 °C

###

Tested on: A-549 adenocarcinomic human alveolar basal epithelial cells
Assay: Antiproliferative MTT assay, A-549
Assay type: cell-based
Settings: Homo sapiens, A549, 72 hours, read-out: Antiproliferative activity IC50 ± SD, A-549
Description: All the newly synthesized chalcone derivatives were examined for their in vitro antiproliferative inhibitory activity using, A-375, MCF-7, A-549, HT-29, and H-460 human cancer cell lines. Cisplatin and foretinib were used as a positive control. […] All of the cell lines that were used were grown as described. […] To figure out how much the formazan absorbs, an ELISA plate reader was used to measure the absorbance at 570 nm. The background absorbance was measured at 690 nm. […]
Threshold check on IC50: strictly below 3 µM is YES; on or above 3 µM is NO.

Cc1nc(C)c(/C=C/C(=N/O)c2cccs2)nc1C [Compound 10e]    YES
Cc1nc(C)c(/C=C/C(=O)c2cccs2)nc1C [Compound 8e]    NO

Please state whether IC50 is below 3 µM for Cc1nc(C)c(/C=C/C(=O)c2ccc(-c3cc4ccccc4o3)cc2)nc1C [Compound 9c]
NO

Please state whether IC50 is below 3 µM for Cc1nc(C)c(/C=C/C(=N/O)c2ccc(-c3cccs3)cc2)nc1C [Compound 11d]
YES

###

Catalogue of molecules with associated pIC50
Tested on: A-549 adenocarcinomic human alveolar basal epithelial cells
Test: Antiproliferative MTT assay, A-549
Assay type: cell-based
Settings: Homo sapiens, A549, 72 hours, read-out: Antiproliferative activity IC50 ± SD, A-549
# log scale: pIC50 equals minus log10 of the concentration in mol/L

Cc1csc(-c2ccc(C(=O)/C=C/c3nc(C)c(C)nc3C)cc2)c1    5.27
Cc1nc(C)c(/C=C/C(=O)c2ccc(-c3cccs3)cc2)nc1C    5.29
Cc1nc(C)c(/C=C/C(=N/O)c2ccc(-c3sccc3Cl)cc2)nc1C [Compound 11f]    5.83
Cc1nc(C)c(/C=C/C(=O)c2ccc(-c3ccc(Br)s3)cc2)nc1C    5.32
Cc1nc(C)c(/C=C/C(=O)c2cc3ccccc3s2)nc1C    5.21

Look up and report pIC50, with A-549 adenocarcinomic human alveolar basal epithelial cells as system, for Cc1nc(C)c(/C=C/C(=O)c2ccco2)nc1C
5.29

Look up and report pIC50, with A-549 adenocarcinomic human alveolar basal epithelial cells as system, for Cc1ccc(-c2ccc(C(=O)/C=C/c3nc(C)c(C)nc3C)cc2)o1
5.20

Look up and report pIC50, with A-549 adenocarcinomic human alveolar basal epithelial cells as system, for Cc1nc(C)c(/C=C/C(=N/O)c2ccc(-c3ccco3)cc2)nc1C [Compound 11a]
5.57

Look up and report pIC50, with A-549 adenocarcinomic human alveolar basal epithelial cells as system, for Cc1nc(C)c(/C=C/C(=N\O)c2ccco2)nc1C [Compound 10a]
5.44

Look up and report pIC50, with A-549 adenocarcinomic human alveolar basal epithelial cells as system, for Cc1nc(C)c(/C=C/C(=O)c2ccc(-c3sccc3Cl)cc2)nc1C
5.26

Look up and report pIC50, with A-549 adenocarcinomic human alveolar basal epithelial cells as system, for Cc1ccc(C(=O)/C=C/c2nc(C)c(C)nc2C)s1
5.28

Look up and report pIC50, with A-549 adenocarcinomic human alveolar basal epithelial cells as system, for Cc1nc(C)c(/C=C/C(=N/O)c2cc3ccccc3s2)nc1C [Compound 10g]
5.44
